# TARGET: Platelet-derived growth factor receptor beta (Homo sapiens)
# Sequence (P09619 whole entry): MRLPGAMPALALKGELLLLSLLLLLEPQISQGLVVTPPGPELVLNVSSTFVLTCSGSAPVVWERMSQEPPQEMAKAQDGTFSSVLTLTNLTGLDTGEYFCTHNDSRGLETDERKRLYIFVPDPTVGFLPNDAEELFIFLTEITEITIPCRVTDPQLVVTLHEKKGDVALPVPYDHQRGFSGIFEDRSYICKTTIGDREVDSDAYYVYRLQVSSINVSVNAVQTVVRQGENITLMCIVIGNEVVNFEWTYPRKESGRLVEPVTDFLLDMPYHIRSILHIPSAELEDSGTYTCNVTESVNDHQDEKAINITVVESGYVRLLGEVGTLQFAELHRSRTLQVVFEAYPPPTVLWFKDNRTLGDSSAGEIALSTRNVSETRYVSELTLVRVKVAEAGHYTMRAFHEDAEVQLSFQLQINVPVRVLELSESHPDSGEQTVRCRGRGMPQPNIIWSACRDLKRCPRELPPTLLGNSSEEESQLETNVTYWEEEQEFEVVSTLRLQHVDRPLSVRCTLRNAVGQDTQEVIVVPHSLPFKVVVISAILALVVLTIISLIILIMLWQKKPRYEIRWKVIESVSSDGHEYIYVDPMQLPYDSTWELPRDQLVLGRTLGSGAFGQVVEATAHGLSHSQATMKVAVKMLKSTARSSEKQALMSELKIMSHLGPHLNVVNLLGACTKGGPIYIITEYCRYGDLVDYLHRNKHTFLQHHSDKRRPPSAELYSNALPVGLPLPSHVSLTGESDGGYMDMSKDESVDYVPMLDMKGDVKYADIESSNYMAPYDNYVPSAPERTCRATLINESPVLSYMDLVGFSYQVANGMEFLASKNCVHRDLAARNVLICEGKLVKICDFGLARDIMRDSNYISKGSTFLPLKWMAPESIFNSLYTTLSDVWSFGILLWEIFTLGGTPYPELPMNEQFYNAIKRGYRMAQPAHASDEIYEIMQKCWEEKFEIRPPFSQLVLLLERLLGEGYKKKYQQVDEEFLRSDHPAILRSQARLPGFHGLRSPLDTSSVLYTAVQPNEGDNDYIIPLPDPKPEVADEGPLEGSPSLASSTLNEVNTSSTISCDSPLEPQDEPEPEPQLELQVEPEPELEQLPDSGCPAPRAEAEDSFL
MEASURED_PARAMETER: IC50
Write your answer as a measured quantity: the number, then the unit.

Using the record for "COc1cc2c(Oc3ccc(N/C=C4\C(=O)NC(=O)N(c5ccc(C)cc5)C4=O)cc3F)ccnc2cc1OCCCN1CCCC1" , report its IC50.
531 nM

====

# TARGET: Epidermal growth factor receptor (Homo sapiens)
# Sequence (P00533 whole entry): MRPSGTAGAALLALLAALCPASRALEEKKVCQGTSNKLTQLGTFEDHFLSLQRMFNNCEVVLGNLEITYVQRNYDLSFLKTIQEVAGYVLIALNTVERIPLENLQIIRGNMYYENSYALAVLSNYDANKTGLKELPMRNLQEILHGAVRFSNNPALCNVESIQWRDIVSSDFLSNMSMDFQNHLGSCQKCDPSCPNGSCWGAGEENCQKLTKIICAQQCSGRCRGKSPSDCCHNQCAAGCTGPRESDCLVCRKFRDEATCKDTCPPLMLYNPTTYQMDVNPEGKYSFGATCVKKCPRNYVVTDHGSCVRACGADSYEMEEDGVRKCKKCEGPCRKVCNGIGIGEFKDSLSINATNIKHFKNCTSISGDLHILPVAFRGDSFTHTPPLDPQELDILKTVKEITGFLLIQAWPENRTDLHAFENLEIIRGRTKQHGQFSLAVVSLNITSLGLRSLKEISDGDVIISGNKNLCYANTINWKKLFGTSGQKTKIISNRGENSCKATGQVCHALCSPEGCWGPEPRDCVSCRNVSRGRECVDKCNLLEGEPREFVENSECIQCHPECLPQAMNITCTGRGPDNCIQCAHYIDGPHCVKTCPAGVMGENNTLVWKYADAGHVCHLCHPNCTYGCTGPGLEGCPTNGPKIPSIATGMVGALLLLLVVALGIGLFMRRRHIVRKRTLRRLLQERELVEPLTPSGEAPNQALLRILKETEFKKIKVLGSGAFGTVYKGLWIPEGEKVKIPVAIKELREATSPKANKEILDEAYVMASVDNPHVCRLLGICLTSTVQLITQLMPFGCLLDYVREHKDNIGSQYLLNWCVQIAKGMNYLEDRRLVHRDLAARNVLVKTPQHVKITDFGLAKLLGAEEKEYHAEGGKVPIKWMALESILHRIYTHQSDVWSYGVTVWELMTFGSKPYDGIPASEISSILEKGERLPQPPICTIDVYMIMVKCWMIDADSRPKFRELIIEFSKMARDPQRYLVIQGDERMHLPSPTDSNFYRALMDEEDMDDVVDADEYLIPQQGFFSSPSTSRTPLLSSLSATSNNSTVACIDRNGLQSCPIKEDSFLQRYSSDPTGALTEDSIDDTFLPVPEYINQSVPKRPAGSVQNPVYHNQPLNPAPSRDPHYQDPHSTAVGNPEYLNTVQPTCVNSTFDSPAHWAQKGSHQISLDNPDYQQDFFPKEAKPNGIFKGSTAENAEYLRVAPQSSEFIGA
pIC50: −log10 of the molar value.
MEASURED_PARAMETER: pIC50

Quick one: pIC50 for "COc1cc2c(Oc3ccc(N/C=C4\C(=O)NC(=O)N(c5ccc(C)cc5)C4=O)cc3F)ccnc2cc1OCCCN1CCCC1" ?
< 4.00

====

# TEST_SUMMARY: Cytotoxicity against human H460 cells after 72 hrs by MTT assay
# SETTINGS: NCI-H460, 72 h
MEASURED_PARAMETER: IC50
State the value, then name its unit.

Which value of IC50 has been reported for "COc1cc2c(Oc3ccc(N/C=C4\C(=O)NC(=O)N(c5ccccc5)C4=O)cc3F)ccnc2cc1OCCCN1CCC(C)CC1" in the records?
170 nM

Moving on to "COc1cc(N2C(=O)NC(=O)/C(=C\Nc3ccc(Oc4ccnc5cc(OCCCN6CCCCC6)c(OC)cc45)c(F)c3)C2=O)c(OC)cc1Cl"
1200 nM

Check "COc1cc2c(Oc3ccc(N/C=C4\C(=O)NC(=O)N(c5ccc(F)cc5F)C4=O)cc3F)ccnc2cc1OCCCN1CCC(C)CC1" too.
260 nM

Try this compound next: "COc1cc2c(Oc3ccc(N/C=C4\C(=O)NC(=O)N(c5ccc(F)cc5F)C4=O)cc3F)ccnc2cc1OCCCN1CCOCC1"
850 nM

// query: "COc1cc2c(Oc3ccc(N/C=C4\C(=O)NC(=O)N(c5c(C)cccc5C)C4=O)cc3F)ccnc2cc1OCCCN1CCN(C)CC1"
170 nM

Also "COc1cc2c(Oc3ccc(N/C=C4\C(=O)NC(=O)N(c5ccccc5C(F)(F)F)C4=O)cc3F)ccnc2cc1OCCCN1CCCCC1" ?
930 nM

Input "COc1cc2c(Oc3ccc(N/C=C4\C(=O)NC(=O)N(c5ccccc5C(F)(F)F)C4=O)cc3F)ccnc2cc1OCCCN1CCN(C)CC1"
4200 nM

Here is the next compound: "COc1cc2c(Oc3ccc(N/C=C4\C(=O)NC(=O)N(c5ccc(F)cc5F)C4=O)cc3F)ccnc2cc1OCCCN1CCN(C)CC1"
1170 nM

====

# Tested on: A549
# TEST_SUMMARY: Cytotoxicity against human A549 cells after 72 hrs by MTT assay
# Assay type: functional, cell-based
# SETTINGS: A549, 72 h
Reported IC50 values follow for various compounds
Respond with the bare value in nM.

Solved cases below.
| MOLECULAR_STRING | UNITS | IC50 |
| --- | --- | --- |
| COc1cc(N2C(=O)NC(=O)/C(=C\Nc3ccc(Oc4ccnc5cc(OCCCN6CCC(C)CC6)c(OC)cc45)c(F)c3)C2=O)c(OC)cc1Cl | nM | 640 |
| COc1cc2c(Oc3ccc(N/C=C4\C(=O)NC(=O)N(c5ccc(C)cc5)C4=O)cc3F)ccnc2cc1OCCCN1CCN(C)CC1 | nM | 430 |
| COc1cc2c(Oc3ccc(N/C=C4\C(=O)NC(=O)N(c5c(C)cccc5C)C4=O)cc3F)ccnc2cc1OCCCN1CCOCC1 | nM | 2200 |

Item "COc1cc2c(Oc3ccc(N/C=C4\C(=O)NC(=O)N(c5ccc(C)cc5)C4=O)cc3F)ccnc2cc1OCCCN1CCCC1" has what recorded IC50?
72
